Reference for the values: patent US20230151091A1

- SYSTEM_UNDER_TEST: T1, mouse MuSK (mouse, UniProt Q61006 22-494, limits assumed)
- T1 construct: Coated on ELISA plates or on the Biacore chip; also called full length mouse MuSK; mouse MuSK (in house produced in HEK293 cells)
- T1 sequence (looked up): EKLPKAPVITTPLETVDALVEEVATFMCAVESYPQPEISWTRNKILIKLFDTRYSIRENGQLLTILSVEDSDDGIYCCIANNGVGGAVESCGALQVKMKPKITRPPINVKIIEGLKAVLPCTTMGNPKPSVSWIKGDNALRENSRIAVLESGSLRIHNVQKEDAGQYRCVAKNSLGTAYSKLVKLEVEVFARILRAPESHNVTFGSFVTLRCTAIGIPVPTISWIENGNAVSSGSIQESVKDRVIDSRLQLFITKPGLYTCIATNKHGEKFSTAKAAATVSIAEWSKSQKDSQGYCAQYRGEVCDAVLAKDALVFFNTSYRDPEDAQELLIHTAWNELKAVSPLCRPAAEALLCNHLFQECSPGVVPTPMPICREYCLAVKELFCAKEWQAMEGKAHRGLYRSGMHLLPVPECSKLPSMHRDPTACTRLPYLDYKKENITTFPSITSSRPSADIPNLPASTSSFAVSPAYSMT
- MEASUREMENT_PROTOCOL: Biacore, MuSK on chip, association pH 7.4, dissociation pH 5.5
- Description: For affinity determination, a CMS chip was coated with cynomolgus monkey, rat and mouse MuSK (200RU) and 66.7 nM of antibody was applied and kinetic parameters calculated (Table 8). […]
MEASURED_PARAMETER: log10(koff) (log10 of the value in s⁻¹)

BINDER	log10(koff)
3B2g2m1 (antibody, human IgG1, V domains shown, human IgG1-LALA backbone; produced in HEK293 cells; also called MuSK agonist antibody 3B2g2m1; MuSK-mAb 3B2g2m1) VH: EVQLLESGGGLVQPGGSLRLSCAASGFTFSDYGMSWVRQAPGKGLEWVSAIPWSGGSTYYKESVKGRFTISRDNSKNTLYLQMNSLRAEDTAVYYCAKRSGRIAFGALDAWGQGTLVTVSS VL: QTVVTQEPSFSVSPGGTVTLTCGLSSGSVTSSNYPDWYQQTPGQAPRTLIYSTDSRHSGVPDRFSGSILGNKAALTITGAQADDESDYYCGLYSYSGSKNYVFGGGTKLTVL	-2.47
3B2g1m4 (antibody, human IgG1, V domains shown, human IgG1-LALA backbone; produced in HEK293 cells) VH: EVQLLESGGGLVQPGGSLRLSCAASGFTFSDYGMSWVRQAPGKGLEWVSAIPWQGGSTYYKESVKGRFTISRDNSKNTLYLQMNSLRAEDTAVYYCAKRSGRIAFGALDAWGQGTLVTVSS VL: QTVVTQEPSFSVSPGGTVTLTCGLSSGSVTSSNYPDWYQQTPGQAPRTLIYSTDSRHSGVPDRFSGSILGNKAALTITGAQADDESDYYCGLYMYSGSKNYVFGGGTKLTVL	-2.52
3B2g2m2 (antibody, human IgG1, V domains shown, human IgG1-LALA backbone; produced in HEK293 cells) VH: EVQLLESGGGLVQPGGSLRLSCAASGFTFSDYGMSWVRQAPGKGLEWVSAIPGSGGSTYYKESVKGRFTISRDNSKNTLYLQMNSLRAEDTAVYYCAKRSGRIAFGALDAWGQGTLVTVSS VL: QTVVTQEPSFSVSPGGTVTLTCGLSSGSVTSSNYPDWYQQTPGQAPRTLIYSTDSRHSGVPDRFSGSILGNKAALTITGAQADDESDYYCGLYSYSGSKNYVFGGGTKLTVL	-1.05
3B2 (antibody, V domains shown, human IgG1 with the LALA mutations (L234A, L235A); produced in HEK293 cells; also called 3B2 mAb; parental 3B2 Ab) VH: ELQLVESGGGLVQPGGSLRLSCAASGFTFDDYGMSWVRQAPGKGLEWVSAIPWNGGSTYYKESVKGRFTISRDNAKKTLYLQMNSLKSEDTAVYYCAKRSGRIAFGALDAWGQGTLVTVSS VL: QAVVTQEPSLSVSPGGTVTLTCGLSSGSVTSSNYPDWYQQTPGQAPRGLIYSTDSRHSGVPSRFSGSISGNKAALTITGAQSEDEADYYCGLYMYSGSKNYVFGGGTKLTVL	-2.53
3B2g2m4 (antibody, human IgG1, V domains shown, human IgG1-LALA backbone; produced in HEK293 cells) VH: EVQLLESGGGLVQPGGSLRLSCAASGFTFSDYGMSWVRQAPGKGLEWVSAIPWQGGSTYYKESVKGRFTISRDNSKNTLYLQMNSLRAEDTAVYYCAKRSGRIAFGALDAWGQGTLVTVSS VL: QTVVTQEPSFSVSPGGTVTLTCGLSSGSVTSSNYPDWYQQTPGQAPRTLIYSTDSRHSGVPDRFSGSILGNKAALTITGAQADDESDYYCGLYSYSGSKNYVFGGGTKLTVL	-2.52
3B2g1m1 (antibody, human IgG1, V domains shown, human IgG1-LALA backbone; produced in HEK293 cells) VH: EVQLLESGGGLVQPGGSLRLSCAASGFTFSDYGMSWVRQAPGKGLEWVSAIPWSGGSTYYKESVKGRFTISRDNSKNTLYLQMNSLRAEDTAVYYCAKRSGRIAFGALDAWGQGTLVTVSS VL: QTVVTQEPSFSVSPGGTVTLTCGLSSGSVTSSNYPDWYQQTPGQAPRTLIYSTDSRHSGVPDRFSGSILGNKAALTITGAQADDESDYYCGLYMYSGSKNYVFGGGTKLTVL	-2.47
